Data credit: patent US7320993B1

readout: melting point

Could you share which melting point value was measured for O=C(C=Cc1cccnc1)NCCCCNC(=O)C(c1ccccc1)c1ccccc1 ?
171 to 172 °C

Could you share which melting point value was measured for CN(CCCCNC(=O)C=Cc1cccnc1)CCN(C)C(c1ccccc1)c1ccccc1 ?
89 to 91 °C

Could you share which melting point value was measured for O=C(C=Cc1cccnc1)NCCCCCCCC(O)(c1ccccc1)c1ccccc1 ?
139 to 140 °C

Could you share which melting point value was measured for O=C(C=Cc1cccnc1)NCCCCn1cnc(-c2ccccc2)c1-c1ccccc1 ?
183 °C

Could you share which melting point value was measured for O=C(C=Cc1cccnc1)NCCCCNC(=O)N(c1ccccc1)c1ccccc1 ?
123 to 125 °C
